Catalogue of inhibition at 1 µM readings, one per entry.
- MEASURED_TARGET: serotonine transporter (SERT) receptor (Homo sapiens)
- Construct: expressed in transfected cells; host or cells: CHO cells
- Sequence (P31645 whole entry): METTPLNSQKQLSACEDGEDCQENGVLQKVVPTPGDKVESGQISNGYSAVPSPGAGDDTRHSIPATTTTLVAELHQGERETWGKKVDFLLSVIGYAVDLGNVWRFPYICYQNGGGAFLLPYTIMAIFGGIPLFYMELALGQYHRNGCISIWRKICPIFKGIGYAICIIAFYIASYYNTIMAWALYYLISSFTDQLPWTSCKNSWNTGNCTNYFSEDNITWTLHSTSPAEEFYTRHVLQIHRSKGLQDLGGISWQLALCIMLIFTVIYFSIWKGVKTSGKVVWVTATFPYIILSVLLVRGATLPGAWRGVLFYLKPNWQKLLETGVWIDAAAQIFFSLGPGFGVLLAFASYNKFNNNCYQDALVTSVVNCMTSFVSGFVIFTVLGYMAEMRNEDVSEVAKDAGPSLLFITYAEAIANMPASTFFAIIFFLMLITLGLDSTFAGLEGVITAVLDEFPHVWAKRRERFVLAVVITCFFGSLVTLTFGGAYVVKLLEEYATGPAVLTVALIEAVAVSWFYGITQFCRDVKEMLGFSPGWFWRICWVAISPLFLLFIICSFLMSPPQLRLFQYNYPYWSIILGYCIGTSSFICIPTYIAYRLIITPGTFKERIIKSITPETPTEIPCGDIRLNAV
- RUN_DESCRIPTION: Binding assay SERT (h), [3H]imipramine, CHO cells
- SETUP_CONDITIONS: read-out: SERT [%]
The reply should be a number in %, with the unit left off.

// below: answered compounds
{"RECORD_SMILES": "O=S(=O)(NCCCCN1CCC(c2noc3cc(F)ccc23)CC1)c1ccsc1", "UNIT_DESCRIPTOR": "%", "RECORDED_MEASUREMENT": -3}
{"RECORD_SMILES": "O=S(=O)(NCCCN1CCN(c2nsc3ccccc23)CC1)c1ccc(Br)cc1", "UNIT_DESCRIPTOR": "%", "RECORDED_MEASUREMENT": 94}
{"RECORD_SMILES": "O=S(=O)(NCCCCN1CCN(c2cccc3[nH]ccc23)CC1)c1ccc(C(F)(F)F)cc1", "UNIT_DESCRIPTOR": "%", "RECORDED_MEASUREMENT": 8}

// recorded inhibition at 1 µM for O=S(=O)(NCCCN1CCC(c2noc3cc(F)ccc23)CC1)c1ccc(F)c(Cl)c1 : 31

// recorded inhibition at 1 µM for Cn1ccc2ccc(S(=O)(=O)NCCCCN3CCC(c4noc5cc(F)ccc45)CC3)cc21 : 34

// recorded inhibition at 1 µM for O=S(=O)(NCCCN1CCC(c2noc3cc(F)ccc23)CC1)c1cccc2ccccc12 : 85

// recorded inhibition at 1 µM for O=S(=O)(NCCCCN1CCN(c2cccc3c2OCCO3)CC1)c1cc2ccc(Cl)cc2s1 : -8

// recorded inhibition at 1 µM for O=S(=O)(NCCCCN1CCC(c2noc3cc(F)ccc23)CC1)c1ccc(OC(F)(F)F)cc1 : 4

====

- MEASURED_TARGET: serotoninergic 5-HT6 receptor (Homo sapiens, UniProt P50406)
- Sequence (P50406 whole entry): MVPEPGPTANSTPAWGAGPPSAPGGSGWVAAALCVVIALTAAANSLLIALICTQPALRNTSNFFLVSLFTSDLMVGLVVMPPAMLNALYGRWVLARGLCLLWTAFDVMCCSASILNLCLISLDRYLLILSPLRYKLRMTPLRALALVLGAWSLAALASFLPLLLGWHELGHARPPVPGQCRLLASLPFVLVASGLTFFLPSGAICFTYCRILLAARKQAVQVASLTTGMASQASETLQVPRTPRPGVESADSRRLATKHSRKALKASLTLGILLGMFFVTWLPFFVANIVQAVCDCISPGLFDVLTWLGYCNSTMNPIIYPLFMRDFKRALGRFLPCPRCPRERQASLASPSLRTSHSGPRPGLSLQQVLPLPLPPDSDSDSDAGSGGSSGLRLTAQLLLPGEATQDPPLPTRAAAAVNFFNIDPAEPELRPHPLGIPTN
- RUN_DESCRIPTION: Cellular functional assay, serotoninergic 5-HT6 receptor (agonism/antagonism)
- Format: cell-based
- SETUP_CONDITIONS: agonist effect, percent of control specific agonist response; compounds tested at 1×10^−6M; read-out: 5-HT6-ag [%]
PROPERTY_NAME: activation at 1 µM (%)
The reply should be a number in %, with the unit left off.

// below: answered compounds
{"COMPOUND": "Cc1cccc(S(=O)(=O)NCCCN2CCN(c3nsc4ccccc34)CC2)c1 [Compound 7]", "RECORDED_MEASUREMENT": 1}
{"COMPOUND": "O=S(=O)(NCCN1CCN(c2nsc3ccccc23)CC1)c1ccc2ccccc2c1 [Compound 10]", "RECORDED_MEASUREMENT": 1}
{"COMPOUND": "O=S(=O)(NCCCCN1CCN(c2nsc3ccccc23)CC1)c1ccc2cc(Cl)ccc2c1 [Compound 61]", "RECORDED_MEASUREMENT": -2}
{"COMPOUND": "Cc1cccc(S(=O)(=O)NCCCCN2CCC(c3noc4cc(F)ccc34)CC2)c1 [Compound 19]", "RECORDED_MEASUREMENT": -1}

API: the following record is the query input.
// recorded activation at 1 µM for O=S(=O)(NCCCN1CCC(c2noc3cc(F)ccc23)CC1)c1ccc(F)c(Cl)c1 [Compound 331] : -1
